B1: Pistol ribozyme (parent)
chain: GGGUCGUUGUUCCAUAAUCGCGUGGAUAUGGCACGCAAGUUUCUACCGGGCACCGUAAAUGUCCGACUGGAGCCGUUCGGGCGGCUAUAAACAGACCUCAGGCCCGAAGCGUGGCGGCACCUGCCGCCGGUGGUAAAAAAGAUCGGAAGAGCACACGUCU

Variants of: B1
Test: aptazyme ON/OFF ratio, guanine; higher = stronger switching; co-transcriptional cleavage with and without guanine
value.kind: aptazyme ON/OFF ratio
Just the number, please, no unit after it.

Lookup: I have this variant here, U7G U8G G9U U10C U11C C12A , and I need its recorded aptazyme ON/OFF ratio.
Found: 1.46

Lookup: Item: U8G G9U C13A
Found: 1.39

Lookup: Item: U7A U10C U11A C12U C13U
Found: 1.26

Lookup: Item: U8G U10A C12G C13G
Found: 1.14

Lookup: Item: U7A U10A U11C C13A
Found: 1.02

Lookup: Item: U8C G9C C12U C13G
Found: 1.07

Lookup: Item: U7A U8C G9C U10A U11G C13G
Found: 1.12

Lookup: Item: U10C U11G C12G C13A
Found: 1.24

Lookup: Item: U7A U8C G9A U10G C12U C13A
Found: 1.23

Lookup: Item: U7G G9U U10C C13G
Found: 1.1

Lookup: Item: U8G U10C U11C C12U C13U
Found: 1.09

Lookup: Item: G9A U10G U11C C12G C13A
Found: 1.11

Lookup: Item: U8G G9C U11A C12A
Found: 1.11

Lookup: Item: U7G U8A G9C U10C U11C
Found: 1.01

Lookup: Item: U7G U8A G9U U10G U11A
Found: 1.05

Lookup: Item: U7C U8G U10G U11C C13G
Found: 1.2

Lookup: Item: U7C U8A G9C U10G U11G C12G C13U
Found: 1.09

Lookup: Item: U7C U8A G9C U11C C13G
Found: 1.04

Lookup: Item: U7G U8G U10G U11G C12G
Found: 1.26

Lookup: Item: U8G G9A U10A C12U C13A
Found: 1.15

Lookup: Item: U8A G9U U11A C12A C13A
Found: 1.22

Lookup: Item: U7A U8G C12U C13A
Found: 1.23

Lookup: Item: U7C G9U U10C U11A C13U
Found: 1.16

Lookup: Item: U7G U8C G9U U10C U11C C12U C13G
Found: 1.41

Lookup: Item: U7A U8G U11G C12A C13U
Found: 1.21

Lookup: Item: U7C U8A G9U U10C C12A
Found: 1.14

Lookup: Item: U7A G9A U11A C12U C13A
Found: 1.24

Lookup: Item: U7C U8G G9U U11C C12G C13U
Found: 1.35

Lookup: Item: U7C G9C U10A U11C C12U C13A
Found: 1.04

Lookup: Item: U7A U8G G9U U10C U11G C12U C13A
Found: 1.21

Lookup: Item: U7G U8G G9U U10A U11C C12A C13U
Found: 1.17

Lookup: Item: U7A U8C G9A U10C C12U C13A
Found: 1.17

Lookup: Item: U7G G9A U11G C12A C13G
Found: 1.07

Lookup: Item: U8C U10A C13A
Found: 1.07

Lookup: Item: G9U U11G C13U
Found: 1.7

Lookup: Item: U7G U8A G9A U10C U11A C12U C13A
Found: 1.09
